Provenance of the data: paper PMC3351444

# assayed.system: human CMKLR1 (Homo sapiens)
# Construct: host or cells: HEK293A (Invitrogen), stably expressing human Gα15
# assay.summary: Ca2+ mobilization (CellLux imaging) agonist assay in HEK293A cells expressing CMKLR1 and Gα15
# Type: cell-based
# measurement.conditions: Ca2+ mobilization, CMKLR1; decimal comma
Square brackets hold non-standard residues; d marks the D form. Peptide text beside a SMILES is read from it.

# compound, max response
data = [
    ("CC(C)C[C@H](NC(=O)[C@H](N)Cc1ccc(O)cc1)C(=O)N1CCC[C@H]1C(=O)N[C@H](CO)C(=O)N[C@@H](CCC(N)=O)C(=O)N[C@@H](Cc1ccc(O)cc1)C(=O)N[C@@H](C)C(=O)N[C@@H](Cc1ccccc1)C(=O)N[C@H](CO)C(=O)O [compound 121] (H-[dY]LP[dS]QYAF[dS]-OH; N-terminus assumed)", "1,6 DF/F0"),
    ("CC(C)C[C@@H](NC(=O)[C@H](Cc1c[nH]cn1)NC(=O)[C@H](N)CO)C(=O)NCC(=O)N[C@@H](CCC(N)=O)C(=O)N[C@@H](Cc1ccc(O)cc1)C(=O)N[C@@H](C)C(=O)N[C@H](CC(=O)O)C(=O)N[C@@H](CO)C(=O)O [compound 96] (H-[dS]H[dL]GQYA[dD]S-OH; N-terminus assumed)", "1,63 DF/F0"),
]

* * *

# assayed.system: human CMKLR1 (Homo sapiens, UniProt Q99788)
# Construct: host or cells: HEK293A (Invitrogen), stably expressing human Gα15
# Sequence (Q99788 1-373): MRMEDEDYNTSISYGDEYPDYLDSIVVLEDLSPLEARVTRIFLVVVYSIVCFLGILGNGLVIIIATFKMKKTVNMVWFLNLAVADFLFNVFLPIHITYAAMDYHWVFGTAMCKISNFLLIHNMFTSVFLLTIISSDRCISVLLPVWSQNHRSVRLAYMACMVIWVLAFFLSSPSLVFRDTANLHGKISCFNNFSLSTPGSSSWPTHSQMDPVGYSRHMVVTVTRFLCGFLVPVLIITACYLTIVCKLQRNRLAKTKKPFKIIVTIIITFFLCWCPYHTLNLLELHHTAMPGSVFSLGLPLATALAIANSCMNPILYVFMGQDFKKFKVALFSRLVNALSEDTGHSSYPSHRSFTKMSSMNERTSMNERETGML
# assay.summary: Ca2+ mobilization (CellLux imaging) agonist assay in HEK293A cells expressing CMKLR1 and Gα15
# Type: cell-based
# measurement.conditions: Ca2+ mobilization, CMKLR1; decimal comma; NR where no EC50 is given; read-out: EC50
pEC50: −log10 of the molar value. Square brackets hold non-standard residues; d marks the D form. Peptide text beside a SMILES is read from it.
Entries and their pEC50
measured.attribute: pEC50

# compound, result.number
rows = [
    ("C[C@@H](NC(=O)[C@H](Cc1ccc(O)cc1)NC(=O)[C@H](CCC(N)=O)NC(=O)[C@H](N)Cc1ccccc1)C(=O)N[C@@H](CCC(N)=O)C(=O)N[C@@H](Cc1ccc(O)cc1)C(=O)N[C@H](Cc1c[nH]c2ccccc12)C(=O)N[C@@H](Cc1ccccc1)C(=O)N[C@H](CO)C(=O)O [compound 146] (H-[dF]QY[dA]QY[dW]F[dS]-OH; N-terminus assumed)", 6.77),
    ("CC(C)C[C@H](NC(=O)[C@@H]1CCCN1C(=O)[C@@H]1CCCN1)C(=O)N[C@H](Cc1c[nH]c2ccccc12)C(=O)N[C@@H](CCC(N)=O)C(=O)N[C@@H](Cc1ccc(O)cc1)C(=O)N[C@@H](C)C(=O)N[C@H](CC(=O)O)C(=O)N[C@H](CO)C(=O)O [compound 153] (H-PPL[dW]QYA[dD][dS]-OH; N-terminus assumed)", 6.50),
]

* * *

Entries and their half-life at 50 µg/mL
# assay.summary: In vitro peptide stability in human serum (RP-HPLC)
# measurement.conditions: human, human serum, 25% (v/v) in RPMI
Square brackets hold non-standard residues; d marks the D form. Peptide text beside a SMILES is read from it.

# compound, half-life at 50 µg/mL [h]
records = [
    ("CC(C)C[C@H](NC(=O)[C@@H]1CCCN1)C(=O)N1CCC[C@H]1C(=O)NCC(=O)N[C@@H](CCC(N)=O)C(=O)N[C@H](Cc1ccccc1)C(=O)N[C@@H](C)C(=O)N[C@@H](Cc1ccccc1)C(=O)N[C@@H](Cc1ccccc1)C(=O)O [compound 58] (H-PLPGQ[dF]AFF-OH; N-terminus assumed)", 0.55),
    ("CC(C)C[C@H](NC(=O)[C@@H](N)Cc1ccc(O)cc1)C(=O)N1CCC[C@H]1C(=O)N[C@H](Cc1ccc(O)cc1)C(=O)N[C@H](CCC(N)=O)C(=O)N[C@@H](Cc1ccc(O)cc1)C(=O)N[C@@H](C)C(=O)N[C@@H](CCC(N)=O)C(=O)N[C@H](Cc1ccccc1)C(=O)O [compound 150] (H-YLP[dY][dQ]YAQ[dF]-OH; N-terminus assumed)", 1.03),
    ("C[C@@H](NC(=O)[C@H](Cc1ccccc1)NC(=O)[C@H](Cc1ccccc1)NC(=O)[C@@H](CO)NC(=O)[C@@H]1CCCN1C(=O)[C@@H](Cc1ccc(O)cc1)NC(=O)[C@H](N)Cc1ccc(O)cc1)C(=O)N[C@@H](Cc1ccccc1)C(=O)N1CCC[C@H]1C(=O)O [compound 154] (H-[dY][dY]P[dS]FF[dA]FP-OH; N-terminus assumed)", 6.23),
]

* * *

# assay.summary: In vitro peptide stability in human serum (RP-HPLC)
# measurement.conditions: human, serum
Square brackets hold non-standard residues; d marks the D form. Peptide text beside a SMILES is read from it.
Entries and their half-life at 50 µg/mL

# molecule, half-life at 50 µg/mL
records = [
    ("CC(C)C[C@H](NC(=O)[C@@H](N)Cc1ccc(O)cc1)C(=O)N1CCC[C@H]1C(=O)N[C@H](CO)C(=O)N[C@@H](CCC(N)=O)C(=O)N[C@@H](Cc1ccc(O)cc1)C(=O)N[C@@H](C)C(=O)N[C@@H](Cc1ccccc1)C(=O)N[C@H](Cc1ccccc1)C(=O)O [compound 119] (H-YLP[dS]QYAF[dF]-OH; N-terminus assumed)", "1.05 h"),
    ("CC(C)C[C@H](NC(=O)[C@H](N)Cc1ccc(O)cc1)C(=O)N1CCC[C@H]1C(=O)N[C@H](CO)C(=O)N[C@@H](CCC(N)=O)C(=O)N[C@@H](Cc1ccc(O)cc1)C(=O)N[C@@H](C)C(=O)N[C@@H](Cc1ccccc1)C(=O)N[C@H](Cc1ccccc1)C(=O)O [compound 120] (H-[dY]LP[dS]QYAF[dF]-OH; N-terminus assumed)", "28.2 h"),
]

* * *

# assayed.system: human CMKLR1 (Homo sapiens, UniProt Q99788)
# Construct: host or cells: HEK293A (Invitrogen), stably expressing human Gα15
# assay.summary: Ca2+ mobilization (CellLux imaging) agonist assay in HEK293A cells expressing CMKLR1 and Gα15
# Format: cell-based
# measurement.conditions: Ca2+ mobilization, CMKLR1; decimal comma
Ends that are not written are not given here.
measured.attribute: max response

# substance, result
measured = [
    ("FLPGALGFF-OH [compound 60]", "0,69 DF/F0"),
    ("YFPGQFAFK-NH2 [compound 2]", "1,84 DF/F0"),
    ("LLPGLFLKL-OH [compound 74]", "0,85 DF/F0"),
]

* * *

Entries and their half-life at 50 µg/mL
# assay.summary: In vitro peptide stability in human serum (RP-HPLC)
# measurement.conditions: human, human serum, 25% (v/v) in RPMI
Square brackets hold non-standard residues; d marks the D form. Peptide text beside a SMILES is read from it.

# molecule, half-life at 50 µg/mL
data = [
    ("CC(C)C[C@H](NC(=O)[C@@H](N)Cc1ccc(O)cc1)C(=O)N1CCC[C@H]1C(=O)NCC(=O)N[C@@H](CCC(N)=O)C(=O)N[C@@H](Cc1ccc(O)cc1)C(=O)N[C@@H](C)C(=O)N1CCC[C@@H]1C(=O)N[C@H](Cc1ccccc1)C(=O)O [compound 125] (H-YLPGQYA[dP][dF]-OH; N-terminus assumed)", "0.7 h"),
    ("CC(C)C[C@H](NC(=O)[C@@H]1CCCN1C(=O)[C@@H](NC(=O)[C@H](Cc1ccc(O)cc1)NC(=O)[C@@H]1CCCN1)C(C)C)C(=O)N[C@H](CC(=O)O)C(=O)N[C@@H](Cc1ccc(O)cc1)C(=O)N[C@@H](C)C(=O)N[C@@H](Cc1ccccc1)C(=O)O [compound 111] (H-PYVPL[dD]YAF-OH; N-terminus assumed)", "1.53 h"),
    ("CC(C)C[C@H](NC(=O)[C@@H](N)Cc1ccc(O)cc1)C(=O)N1CCC[C@H]1C(=O)NCC(=O)N[C@@H](CCC(N)=O)C(=O)N[C@@H](Cc1ccc(O)cc1)C(=O)N[C@H](Cc1c[nH]c2ccccc12)C(=O)N1CCC[C@H]1C(=O)N[C@H](Cc1ccccc1)C(=O)O [compound 126] (H-YLPGQY[dW]P[dF]-OH; N-terminus assumed)", "0.783 h"),
    ("C[C@H](NC(=O)[C@H](Cc1ccc(O)cc1)NC(=O)[C@H](CCC(N)=O)NC(=O)CNC(=O)[C@@H]1CCCN1C(=O)[C@H](CCCNC(=N)N)NC(=O)[C@@H](N)Cc1ccc(O)cc1)C(=O)N[C@@H](Cc1ccccc1)C(=O)N[C@H](CO)C(=O)O (H-YRPGQYAF[dS]-OH; N-terminus assumed)", "0.35 h"),
    ("CC(C)C[C@H](NC(=O)[C@H](N)Cc1ccc(O)cc1)C(=O)N1CCC[C@H]1C(=O)NCC(=O)N[C@@H](CCC(N)=O)C(=O)N[C@@H](Cc1ccc(O)cc1)C(=O)N[C@@H](C)C(=O)N[C@@H](Cc1ccccc1)C(=O)N[C@@H](Cc1ccccc1)C(=O)O (H-[dY]LPGQYAFF-OH; N-terminus assumed)", "2.25 h"),
    ("C[C@H](N)C(=O)N[C@@H](Cc1ccccc1)C(=O)N[C@H](CO)C(=O)N[C@@H](CCC(N)=O)C(=O)N[C@@H](Cc1ccccc1)C(=O)N[C@H](CO)C(=O)N[C@@H](C)C(=O)N[C@@H](Cc1ccccc1)C(=O)N[C@H](CO)C(=O)O [compound 106] (H-AF[dS]QF[dS]AF[dS]-OH; N-terminus assumed)", "1.83 h"),
    ("CC(C)C[C@H](NC(=O)[C@H](N)Cc1ccccc1)C(=O)N1CCC[C@H]1C(=O)NCC(=O)N[C@@H](CCC(N)=O)C(=O)N[C@@H](Cc1ccc(O)cc1)C(=O)N[C@@H](C)C(=O)N[C@@H](Cc1ccccc1)C(=O)N[C@H](CO)C(=O)O [compound 95] (H-[dF]LPGQYAF[dS]-OH; N-terminus assumed)", "40.6 h"),
    ("CC(C)C[C@H](NC(=O)[C@@H](N)Cc1ccccc1)C(=O)N1CCC[C@H]1C(=O)NCC(=O)N[C@@H](CCC(N)=O)C(=O)NCC(=O)N[C@H](Cc1ccccc1)C(=O)N[C@@H](Cc1ccccc1)C(=O)N[C@@H](CO)C(=O)O [compound 61] (H-FLPGQG[dF]FS-OH; N-terminus assumed)", "0.683 h"),
    ("C[C@H](NC(=O)[C@H](Cc1ccccc1)NC(=O)[C@H](C)NC(=O)[C@H](Cc1ccc(O)cc1)NC(=O)[C@H](C)NC(=O)[C@H](Cc1ccccc1)NC(=O)[C@@H](CO)NC(=O)[C@H](Cc1ccccc1)NC(=O)[C@@H](N)CCC(N)=O)C(=O)O [compound 102] (H-QF[dS]FAYAFA-OH; N-terminus assumed)", "1.38 h"),
]
